Hey, just so you know, these numbers are from patent US20020103111A1.

- assayedTarget: human α4β7 integrin (human) (UniProt P13612)
- testProtocol: inhibition of HUT 78 cell adhesion to murine MAdCAM-1/mCk at 500 µM
Ends that are not written are not given here.

# substance, % Adhesion Inhibition, %
rows = [
    ("H-RVHWRGLDTSLGSVQ", 90),
    ("Ac-Lle-Asp-Thr-Ser-Leu (peptide)", 17),
    ("H-WRGLDTSLGS", 76),
    ("Ac-RVHWRGLDTSLGSVQ", 88),
    ("Ac-WRGLDTSLGS", 71),
    ("H-HWRGLDTSLGSV", 80),
    ("Ac-RGLDTSLG", 75),
    ("NH2-Leu-Asp-Thr-Ser-Leu (peptide)", 22),
    ("Ac-HWRGLDTSLGSV", 71),
]

====

Reported IC50 values are given for each entry in this list.
- assayedTarget: human α4β7 integrin (human)
- testProtocol: inhibition of HUT 78 cell adhesion to murine MAdCAM-1/mCk

# substance, IC50 (µM)
data = [
    ("Pca-Leu-Asp-Thr-Ser-Leu (peptide)", 2.1),
    ("Cpc-Asp-Thr-Ser-Leu (peptide)", 8.9),
    ("Dphb-Leu-Asp-Thr-Ser-Leu (peptide)", 15),
    ("Pba-Asp-Thr-Ser-Leu (peptide)", 13.3),
    ("2-Anc-Leu-Asp-Thr-Ser-Leu (peptide)", 5.4),
    ("Pba-Leu-Asp-Thr-Ser-Leu (00789-1A) (peptide)", 4),
    ("Ac-MeLeu-Asp-Thr-Ser-Leu (peptide)", 150),
]
